// data source = paper PMC7495461

Target protein (sequence): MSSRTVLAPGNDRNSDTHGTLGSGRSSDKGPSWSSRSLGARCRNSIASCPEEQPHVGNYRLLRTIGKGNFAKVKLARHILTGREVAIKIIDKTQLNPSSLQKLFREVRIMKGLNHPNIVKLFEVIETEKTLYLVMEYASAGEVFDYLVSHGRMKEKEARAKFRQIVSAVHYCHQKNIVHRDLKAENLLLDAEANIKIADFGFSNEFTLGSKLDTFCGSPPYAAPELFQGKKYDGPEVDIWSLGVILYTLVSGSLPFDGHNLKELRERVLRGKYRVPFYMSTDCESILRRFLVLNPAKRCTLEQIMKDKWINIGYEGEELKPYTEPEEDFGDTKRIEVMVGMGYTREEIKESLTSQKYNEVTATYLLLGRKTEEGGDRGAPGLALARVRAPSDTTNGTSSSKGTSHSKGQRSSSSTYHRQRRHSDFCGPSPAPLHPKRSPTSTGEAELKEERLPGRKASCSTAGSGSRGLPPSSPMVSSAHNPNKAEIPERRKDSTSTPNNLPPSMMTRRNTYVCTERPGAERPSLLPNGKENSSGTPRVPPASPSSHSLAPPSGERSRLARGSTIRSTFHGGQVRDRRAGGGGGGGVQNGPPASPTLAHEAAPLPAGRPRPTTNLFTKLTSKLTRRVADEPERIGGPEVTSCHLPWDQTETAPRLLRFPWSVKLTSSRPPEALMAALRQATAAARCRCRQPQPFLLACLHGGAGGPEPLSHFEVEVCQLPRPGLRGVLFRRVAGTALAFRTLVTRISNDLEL
parameter: IC50 (µM)
Write the number in µM without appending the unit.

Cc1ncc([N+](=O)[O-])n1C(=NO)c1ccccc1C(F)(F)F ... 1.47

(Q) Which IC50 reading was recorded for the compound Cc1ncc([N+](=O)[O-])n1C(=NO)c1ccc([N+](=O)[O-])cc1 ?
(A) 16.2

----------
# key: entry, value: pIC50
Target: MARK4 (Homo sapiens)
Sequence (Q96L34 1-752): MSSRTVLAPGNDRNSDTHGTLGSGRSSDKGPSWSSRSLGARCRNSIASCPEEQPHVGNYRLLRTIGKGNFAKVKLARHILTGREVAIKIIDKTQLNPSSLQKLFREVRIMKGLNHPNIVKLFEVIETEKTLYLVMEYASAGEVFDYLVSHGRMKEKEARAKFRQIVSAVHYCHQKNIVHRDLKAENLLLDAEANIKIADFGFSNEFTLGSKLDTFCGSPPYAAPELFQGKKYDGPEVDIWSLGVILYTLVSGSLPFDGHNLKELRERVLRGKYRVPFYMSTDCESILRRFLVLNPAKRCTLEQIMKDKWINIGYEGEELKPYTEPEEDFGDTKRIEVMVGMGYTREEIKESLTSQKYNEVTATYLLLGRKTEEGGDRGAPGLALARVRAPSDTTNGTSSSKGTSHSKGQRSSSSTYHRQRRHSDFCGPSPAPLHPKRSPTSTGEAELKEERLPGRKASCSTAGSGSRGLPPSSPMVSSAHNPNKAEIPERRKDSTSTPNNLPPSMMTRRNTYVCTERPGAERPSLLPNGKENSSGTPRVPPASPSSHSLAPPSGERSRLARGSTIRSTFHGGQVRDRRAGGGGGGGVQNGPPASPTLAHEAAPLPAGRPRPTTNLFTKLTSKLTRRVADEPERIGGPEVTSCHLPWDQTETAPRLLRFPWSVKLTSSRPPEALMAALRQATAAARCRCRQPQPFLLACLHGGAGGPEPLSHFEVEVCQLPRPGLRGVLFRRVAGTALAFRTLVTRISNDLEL
Assay: MARK4 enzyme inhibition assay
Format: biochemical
pIC50: −log10 of the molar value.

CCOc1ccc(C(=NO)n2c([N+](=O)[O-])cnc2C)cc1 ... < 4.70
Cc1ncc([N+](=O)[O-])n1C(=NO)c1ccccc1 ... < 4.70

Let's switch to this molecule now.
(Q) Which pIC50 reading was recorded for the molecule Cc1ccc(C(=NO)n2c([N+](=O)[O-])cnc2C)cc1 ?
(A) < 4.70
